Target: ΔF508-CFTR (Homo sapiens, UniProt P13569, DEL508-508)
Sequence (P13569 with tags, fused parts or gaps DEL508-508): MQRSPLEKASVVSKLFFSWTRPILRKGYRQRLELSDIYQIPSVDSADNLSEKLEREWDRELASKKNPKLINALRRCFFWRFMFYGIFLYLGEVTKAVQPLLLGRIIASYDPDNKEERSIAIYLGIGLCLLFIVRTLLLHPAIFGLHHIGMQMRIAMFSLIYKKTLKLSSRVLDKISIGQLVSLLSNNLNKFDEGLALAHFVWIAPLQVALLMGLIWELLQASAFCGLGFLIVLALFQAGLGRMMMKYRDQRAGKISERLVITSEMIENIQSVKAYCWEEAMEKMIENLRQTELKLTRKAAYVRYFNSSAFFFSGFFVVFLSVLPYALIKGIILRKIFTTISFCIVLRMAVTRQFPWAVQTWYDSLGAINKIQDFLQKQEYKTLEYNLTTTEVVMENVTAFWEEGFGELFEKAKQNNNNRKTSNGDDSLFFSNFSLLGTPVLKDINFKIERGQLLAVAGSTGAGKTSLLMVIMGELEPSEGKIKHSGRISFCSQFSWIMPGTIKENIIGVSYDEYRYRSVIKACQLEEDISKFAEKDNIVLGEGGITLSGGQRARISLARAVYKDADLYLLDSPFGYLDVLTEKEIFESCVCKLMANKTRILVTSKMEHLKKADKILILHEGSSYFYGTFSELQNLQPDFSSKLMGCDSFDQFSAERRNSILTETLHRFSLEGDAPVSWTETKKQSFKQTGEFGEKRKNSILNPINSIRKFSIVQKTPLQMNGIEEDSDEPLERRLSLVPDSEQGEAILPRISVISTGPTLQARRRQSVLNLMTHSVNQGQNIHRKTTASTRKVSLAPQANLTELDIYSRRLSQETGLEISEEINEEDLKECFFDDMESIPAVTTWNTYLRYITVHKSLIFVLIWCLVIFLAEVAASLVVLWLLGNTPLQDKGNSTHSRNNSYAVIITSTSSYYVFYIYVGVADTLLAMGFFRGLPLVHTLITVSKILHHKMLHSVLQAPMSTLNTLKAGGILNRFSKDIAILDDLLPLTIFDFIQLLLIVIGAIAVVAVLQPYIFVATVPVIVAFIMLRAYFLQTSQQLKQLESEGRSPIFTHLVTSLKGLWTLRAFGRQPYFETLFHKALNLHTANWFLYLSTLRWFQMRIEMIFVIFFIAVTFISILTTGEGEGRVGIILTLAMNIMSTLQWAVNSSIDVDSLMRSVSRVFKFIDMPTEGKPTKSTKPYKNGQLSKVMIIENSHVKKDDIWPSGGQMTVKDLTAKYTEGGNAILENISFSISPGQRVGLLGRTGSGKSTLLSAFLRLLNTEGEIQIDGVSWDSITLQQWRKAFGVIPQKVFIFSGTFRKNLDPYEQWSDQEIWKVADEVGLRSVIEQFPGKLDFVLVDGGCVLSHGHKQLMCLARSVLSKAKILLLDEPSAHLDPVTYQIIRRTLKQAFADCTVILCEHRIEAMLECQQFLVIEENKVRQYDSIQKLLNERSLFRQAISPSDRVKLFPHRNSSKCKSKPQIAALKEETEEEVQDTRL
Experiment: ΔF508-CFTR corrector activity assay (I− influx, YFP fluorescence)
Settings: FRT cells, 16-20 h incubation, forskolin 20 μM + genistein 50 μM
readoutName: IC50

Return value of IC50 for input COc1ccc(Cl)cc1Nc1nc2c(s1)CCCc1nc(NC(=O)C(C)(C)C)sc1-2 [29z] , no commentary.
~450 nM
